# Test system: barnyardgrass
# assay.details: Test B flood
# Assay type: in vivo, Echinochloa crus-galli
# stated.conditions: 250 g ai/ha, visual rating on 0 to 100 scale (0 no effect, 100 complete control), 13 to 15 days
// reported Plant response rating, Barnyardgrass per item

molecule: CCNC(=O)c1cc(CCF)n(Cc2ccnc(C(F)(F)F)c2)n1
Plant response rating, Barnyardgrass: 20
//
molecule: CCc1cc(C(=O)NCC(F)(F)F)nn1Cc1cc(C(F)(F)F)nn1C(C)C
Plant response rating, Barnyardgrass: 0
//
molecule: CCONC(=O)c1cc(CC)n(Cc2cc(OC(F)F)nn2C)n1
Plant response rating, Barnyardgrass: 0
//
molecule: COCc1cc(C(=O)NC2CC2)nn1Cc1ccnc(C(F)(F)F)c1
Plant response rating, Barnyardgrass: 20
//
molecule: CCc1cc(C(=O)NC2CC2)nn1Cc1cccc(C(F)(F)F)n1
Plant response rating, Barnyardgrass: 0
//
molecule: CCCCNC(=O)c1cc(CC)n(Cc2ccnc(C(F)(F)F)c2)n1
Plant response rating, Barnyardgrass: 45
//
molecule: CCc1cc(C(=O)NC2CC2)nn1Cc1cc(C(F)(F)F)nn1C(C)C
Plant response rating, Barnyardgrass: 0
//
molecule: COCc1cc(C(=O)NCC(F)(F)F)nn1Cc1cc(C(F)(F)C(F)(F)F)nn1C
Plant response rating, Barnyardgrass: 0
//
molecule: CCCCNC(=O)c1cc(C)n(Oc2ccnc(C(F)(F)F)c2)n1
Plant response rating, Barnyardgrass: 0

---

Documented Kochia plant response rating across a set of compounds
# Tested on: kochia
# assay.details: Test C postemergence
# Assay type: in vivo, Kochia scoparia
# stated.conditions: postemergence, 62 g ai/ha; scale 0 to 100
assay.metric: Kochia plant response rating

compound: CCc1cc(C(=O)NC2CC2)nn1Cc1ccnc(C(F)(F)F)c1 [Compound 76]
reported.value: 90

compound: CCCc1cc(C(=O)NC(C)C)nn1Cc1cc(C(F)(F)F)nn1C [Compound 201]
reported.value: 85

compound: Cc1cc(C(=O)NCC(F)(F)F)nn1Cc1ccnc(C(F)(F)F)c1 [Compound 74]
reported.value: 50

---

# Tested on: foxtail, giant
# assay.details: Test C postemergence
# Type: in vivo, Setaria faberii
# stated.conditions: postemergence, 62 g ai/ha; scale 0 to 100

compound: CCc1cc(C(=O)NCC(F)(F)F)nn1Cc1cc(C(F)(F)F)nn1C [Compound 108]
Foxtail, Giant plant response rating: 30

compound: O=C(NC1CC1)c1cc(CCCl)n(Cc2ccnc(C(F)(F)F)c2)n1 [Compound 144]
Foxtail, Giant plant response rating: 10

compound: CCc1cc(C(=O)NCC(F)(F)F)nn1Cc1ccnc(Br)c1 [Compound 224]
Foxtail, Giant plant response rating: 5

compound: CCCNC(=O)c1cc(CCF)n(Cc2ccnc(C(F)(F)F)c2)n1 [Compound 177]
Foxtail, Giant plant response rating: 10

compound: CCCNC(=O)c1cc(OCC)n(Cc2ccnc(OC(F)F)c2)n1 [Compound 136]
Foxtail, Giant plant response rating: 30

---

# Tested on: ducksalad
# assay.details: Test B flood
# Assay type: in vivo, Heteranthera limosa
# stated.conditions: 250 g ai/ha, visual rating on 0 to 100 scale (0 no effect, 100 complete control), 13 to 15 days
assay.metric: Plant response rating, Ducksalad

molecule: CCNC(=O)c1cc(CCF)n(Cc2ccnc(C(F)(F)F)c2)n1
target.entity: ducksalad
reported.value: 95

molecule: CCc1cc(C(=O)NCC(F)(F)F)nn1Oc1cccc(C(F)(F)F)c1
target.entity: ducksalad
reported.value: 0

molecule: CCCNC(=O)c1cc(CCF)n(Cc2ccnc(C(F)(F)F)c2)n1
target.entity: ducksalad
reported.value: 95

molecule: Cc1cc(C(=O)NCC(F)(F)F)nn1Oc1ccnc(C(F)(F)F)c1
target.entity: ducksalad
reported.value: 0

molecule: CCCc1cc(C(=O)NC2CC2)nn1Cc1cc(C(F)(F)F)nn1C
target.entity: ducksalad
reported.value: 95

molecule: CCCc1cc(C(=O)NCC(F)(F)F)nn1Cc1ccnc(OC(F)F)c1
target.entity: ducksalad
reported.value: 95
